- System: TK-10
- TEST_DESCRIPTION: NCI tumour cell line growth inhibition, 48 h
The source made the active and inactive calls. Cut-off read from the data, not from the text of the source: active = GI50 up to about 1.1 µM and inactive = higher.
Each item that follows carries a reported GI50.
PARAMETER: GI50

COc1cc2c(cc1O)C1Cc3ccc(OC)c(O)c3C[N+]1(C)CC2 (stereo unspecified)    > 100 µM (inactive)
CC1=N[C@](C)(C2CC3C=CC2C3=O)COC1=O (stereo partly specified)    > 100 µM (inactive)
CCOC(=O)C1=C(N2CCCC2)C(=O)C(C(=O)OCC)C1 (stereo unspecified)    > 100 µM (inactive)
O=C(O)CN(CC(=O)O)C(C(=O)O)c1ccccc1 (stereo unspecified)    > 100 µM (inactive)
COc1ccc(C2SC(=N)Nc3c2c(C)nn3C(=O)Cc2ccccc2)cc1 (stereo unspecified)    > 100 µM (inactive)
Cc1nc(O)nc(N/N=C/c2c3ccccc3c(Cl)c3ccccc23)c1C(=O)Nc1ccc(Cl)cc1    47.6 µM (inactive)
